Target: DUB activity in cells (NCI-H929, Z138, MM.1S, A375) (Homo sapiens)
Construct: endogenous in cells; host or cells: NCI-H929, Z138, MM.1S, A375
Sequence (Q93008 whole entry): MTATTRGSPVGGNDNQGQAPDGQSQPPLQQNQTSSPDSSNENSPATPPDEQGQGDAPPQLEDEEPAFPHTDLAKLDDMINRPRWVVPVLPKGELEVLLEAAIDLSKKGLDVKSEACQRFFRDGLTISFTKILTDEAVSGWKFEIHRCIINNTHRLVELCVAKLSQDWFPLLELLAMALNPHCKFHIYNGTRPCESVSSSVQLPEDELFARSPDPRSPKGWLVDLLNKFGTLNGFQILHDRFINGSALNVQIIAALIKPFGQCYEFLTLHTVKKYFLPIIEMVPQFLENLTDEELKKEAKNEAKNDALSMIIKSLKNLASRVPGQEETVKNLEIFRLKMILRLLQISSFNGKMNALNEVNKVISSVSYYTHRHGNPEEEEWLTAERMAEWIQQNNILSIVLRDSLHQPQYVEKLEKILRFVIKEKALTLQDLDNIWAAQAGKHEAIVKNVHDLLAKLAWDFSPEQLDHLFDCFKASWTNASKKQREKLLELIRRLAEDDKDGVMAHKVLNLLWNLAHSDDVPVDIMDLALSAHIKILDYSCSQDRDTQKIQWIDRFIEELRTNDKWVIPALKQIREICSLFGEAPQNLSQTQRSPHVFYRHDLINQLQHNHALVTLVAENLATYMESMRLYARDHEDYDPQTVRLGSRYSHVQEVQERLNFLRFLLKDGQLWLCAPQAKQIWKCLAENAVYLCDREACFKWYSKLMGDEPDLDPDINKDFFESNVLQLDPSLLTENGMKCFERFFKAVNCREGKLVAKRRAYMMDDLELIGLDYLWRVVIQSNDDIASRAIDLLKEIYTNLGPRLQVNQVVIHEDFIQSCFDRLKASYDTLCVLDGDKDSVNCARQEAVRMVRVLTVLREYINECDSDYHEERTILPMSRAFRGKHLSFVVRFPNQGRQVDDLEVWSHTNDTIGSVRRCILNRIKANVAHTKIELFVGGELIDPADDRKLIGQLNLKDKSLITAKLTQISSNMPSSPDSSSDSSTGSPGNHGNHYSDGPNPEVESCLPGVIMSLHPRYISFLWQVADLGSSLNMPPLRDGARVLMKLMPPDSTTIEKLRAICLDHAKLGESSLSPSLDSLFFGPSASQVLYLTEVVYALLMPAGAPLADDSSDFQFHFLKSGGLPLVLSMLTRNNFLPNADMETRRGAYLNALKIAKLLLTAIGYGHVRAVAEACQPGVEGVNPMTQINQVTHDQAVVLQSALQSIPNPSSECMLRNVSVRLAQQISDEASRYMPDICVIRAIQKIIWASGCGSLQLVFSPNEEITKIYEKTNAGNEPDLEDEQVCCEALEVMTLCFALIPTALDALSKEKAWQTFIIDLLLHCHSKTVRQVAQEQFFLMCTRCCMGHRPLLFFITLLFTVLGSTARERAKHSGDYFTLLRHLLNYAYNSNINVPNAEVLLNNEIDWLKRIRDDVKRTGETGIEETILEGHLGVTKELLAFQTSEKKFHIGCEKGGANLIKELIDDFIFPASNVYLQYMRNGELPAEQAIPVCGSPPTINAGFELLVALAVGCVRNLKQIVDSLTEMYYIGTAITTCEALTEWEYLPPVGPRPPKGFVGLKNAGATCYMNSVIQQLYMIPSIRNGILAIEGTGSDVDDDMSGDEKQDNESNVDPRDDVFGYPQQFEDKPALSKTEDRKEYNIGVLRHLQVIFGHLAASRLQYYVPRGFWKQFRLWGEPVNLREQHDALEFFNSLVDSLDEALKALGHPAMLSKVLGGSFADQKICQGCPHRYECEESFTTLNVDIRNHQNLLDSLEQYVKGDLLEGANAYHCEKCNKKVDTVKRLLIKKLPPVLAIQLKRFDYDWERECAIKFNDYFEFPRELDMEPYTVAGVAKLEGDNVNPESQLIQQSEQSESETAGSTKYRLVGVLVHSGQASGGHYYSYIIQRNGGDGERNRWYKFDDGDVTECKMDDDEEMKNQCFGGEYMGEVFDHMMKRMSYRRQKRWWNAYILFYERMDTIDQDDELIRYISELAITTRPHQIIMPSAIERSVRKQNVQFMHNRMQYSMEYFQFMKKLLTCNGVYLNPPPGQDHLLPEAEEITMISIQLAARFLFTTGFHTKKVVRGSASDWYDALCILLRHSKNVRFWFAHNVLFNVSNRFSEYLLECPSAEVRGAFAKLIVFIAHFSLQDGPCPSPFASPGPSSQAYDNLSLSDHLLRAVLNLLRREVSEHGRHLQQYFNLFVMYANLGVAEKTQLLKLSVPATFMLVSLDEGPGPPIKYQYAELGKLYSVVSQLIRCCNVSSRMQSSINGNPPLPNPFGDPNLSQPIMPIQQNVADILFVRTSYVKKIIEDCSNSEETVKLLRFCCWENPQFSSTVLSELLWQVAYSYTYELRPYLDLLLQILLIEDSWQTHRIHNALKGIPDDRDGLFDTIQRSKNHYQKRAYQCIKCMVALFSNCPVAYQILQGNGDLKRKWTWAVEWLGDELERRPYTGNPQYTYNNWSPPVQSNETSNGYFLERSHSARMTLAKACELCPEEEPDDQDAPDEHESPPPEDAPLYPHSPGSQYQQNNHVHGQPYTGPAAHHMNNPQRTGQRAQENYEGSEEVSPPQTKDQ
Assay: HA-Ubiquitin-Vinylsulfone (HA-Ub-VS) cell labeling assay
Format: cell-based
Conditions: compound tested at 5 μM; HA-Ub-VS labeling of USP9x in cells
property.name: inhibition at 5 µM

Q: Supply measured inhibition at 5 µM of N#C/C(=C\c1ncc(Br)cc1Br)C(=O)NC1(c2ccccc2)CCCC1 in your reply.
Ans: ≥ 75%

Q: Given N#C/C(=C\c1ncc(Br)cc1F)C(=O)NC1(c2ccccc2)CCCC1 , respond with its inhibition at 5 µM.
Ans: ≥ 75%

Q: Note inhibition at 5 µM for the compound shown: COC(=O)/C=C/c1cccc(/C=C(\C#N)C(=O)NC2(c3ccccc3)CCCC2)n1
Ans: 50 to 75%

Q: Using known records, supply inhibition at 5 µM for N#C/C(=C\c1cccc(Br)n1)C(=O)NC1(c2ccccc2)CCCCC1
Ans: 25 to 50%

Q: Return inhibition at 5 µM for the following compound: N#C/C(=C\c1ncc(Br)cc1Br)C(=O)NC1(c2ccccc2)CCCCCC1
Ans: ≥ 75%

Q: // Input: CCOC(=O)c1ccc(-c2ccc(C3(NC(=O)/C(C#N)=C/c4ncc(Br)cc4Br)CCCC3)cc2)cc1 . Output its inhibition at 5 µM only.
Ans: < 25%

Q: Name the recorded inhibition at 5 µM of the item Cn1cc(-c2cccc(/C=C(\C#N)C(=O)NC3(c4ccccc4)CCCC3)n2)cn1 in your answer.
Ans: 50 to 75%

Q: Answer with the recorded inhibition at 5 µM for the compound listed here: N#C/C(=C\c1cc(Br)ccn1)C(=O)NC1(c2ccccc2)CCCC1
Ans: < 25%

Q: Let me know recorded inhibition at 5 µM for N#C/C(=C\c1cccc(Br)n1)C(=O)NC1(c2ccc(-c3cccnc3)cc2)CCCC1 , thanks.
Ans: ≥ 75%

Q: Please give measured inhibition at 5 µM of the following entry: COc1ccc(COc2ccc(C3(NC(=O)/C(C#N)=C/c4cccc(Br)n4)CCCC3)cc2)cc1
Ans: 50 to 75%

Q: Note down inhibition at 5 µM recorded for Cc1cccc(C2(NC(=O)/C(C#N)=C/c3ncc(Br)cc3Br)CCCC2)c1
Ans: ≥ 75%

Q: Supply recorded inhibition at 5 µM for N#C/C(=C\c1cccc(C2CC2)n1)C(=O)NC1(c2ccc(-c3ccc(CC(=O)O)cc3)cc2)CCCC1 here.
Ans: 25 to 50%

Q: In one line, give reported inhibition at 5 µM of the entry N#C/C(=C\c1cccc(Br)n1)C(=O)NC1(c2ccc(-c3cccc(C(=O)O)c3)cc2)CCCC1 .
Ans: 50 to 75%

Q: Please give the documented inhibition at 5 µM of COC(=O)c1ccc(-c2ccc(C3(NC(=O)/C(C#N)=C/c4ncc(Br)cc4Br)CCCC3)cc2)cn1
Ans: 50 to 75%

Q: Consider the compound N#C/C(=C\c1cccc(Br)n1)C(=O)NC1(c2ccc(-c3ccc(CC(=O)O)cc3)cc2)CCCC1 and give its recorded inhibition at 5 µM.
Ans: < 25%

Q: Identify measured inhibition at 5 µM associated with CC(C)(C)c1ccc(C2(NC(=O)/C(C#N)=C/c3ncc(Br)cc3Br)CCCC2)cc1
Ans: ≥ 75%

Q: Give me measured inhibition at 5 µM, please, for this compound: N#C/C(=C\c1cccc(Br)n1)C(=O)NC1(c2cccnc2)CCCC1
Ans: < 25%

Q: Recall and state the measured inhibition at 5 µM for CCCCCCCCCCCCCC(=O)OCc1ccc(C2(NC(=O)/C(C#N)=C/c3cccc(Br)n3)CCCC2)cc1 .
Ans: < 25%

Q: Quick one: give measured inhibition at 5 µM for N#C/C(=C\c1cccc(C#CCN2CCOCC2)n1)C(=O)NC1(c2ccccc2)CCCC1
Ans: 25 to 50%

Q: Fill in inhibition at 5 µM for record CN(C)C(=O)c1ccc(C2(NC(=O)/C(C#N)=C/c3ncc(Br)cc3Br)CCCC2)cc1
Ans: 50 to 75%

Q: Give inhibition at 5 µM for the following compound: N#C/C(=C\c1cccc(Br)n1)C(=O)NC1(c2ccccc2)CCOCC1
Ans: 50 to 75%

Q: Please supply the value of reported inhibition at 5 µM for the item N#C/C(=C\c1cccc(Br)n1)C(=O)NC1(c2ccc(COC(=O)CCCCCN3C(=O)C=CC3=O)cc2)CCCC1
Ans: 25 to 50%

Q: Give the value of inhibition at 5 µM reported for the following: N#C/C(=C\c1ncc(Br)cc1Br)C(=O)NC1(c2ccc(F)cc2)CCCC1
Ans: ≥ 75%

Q: Determine from records and report inhibition at 5 µM for N#C/C(=C\c1ncc(Br)cc1Br)C(=O)NC1(c2cccc(Cl)c2)CCCC1
Ans: ≥ 75%

Q: // Input: N#C/C(=C\c1cccc(-c2ccc(N3CCOCC3)nc2)n1)C(=O)NC1(c2ccccc2)CCCC1 . Output its inhibition at 5 µM only.
Ans: ≥ 75%

Q: Read off the recorded inhibition at 5 µM for N#C/C(=C\c1cccc(C2CC2)n1)C(=O)NC1(c2ccc(-c3ccc(C(=O)O)cc3)cc2)CCCC1
Ans: 25 to 50%

Q: Supply measured inhibition at 5 µM of N#C/C(=C\c1cccc(Br)n1)C(=O)NC1(c2ccccc2)CCCC1 in your reply.
Ans: ≥ 75%
